Hey, just so you know, these numbers are from PubChem BioAssay (NCI).

Assay: NCI Yeast Anticancer Drug Screen. Data for the bub3 strain (AID 167)
Settings: S. cerevisiae bub3 mutant strain, at 50.0 µM (retest, dose inferred, filed as 5.0), hits give high values
The panel holds about 79,000 compounds, 15% with a hit somewhere; the sample as a whole holds those more often.
# if value of growth inhibition reaches 40%, tag T; if it stays below, tag F

Would you say CC(=O)N1c2ccccc2C2=NN=C(N(C)C)SC21 (stereo not drawn) shows growth inhibition at minimum 40%?
T

Would you say `C/C(=N\NC(=S)N(C)C1CCCCC1)c1ccc2ccccc2n1` shows growth inhibition at minimum 40%?
T

---

Assay: NCI Yeast Anticancer Drug Screen. Data for the mec2-1 strain (AID 157)
Settings: S. cerevisiae mec2-1 strain, at 50.0 µM (retest, dose inferred, filed as 5.0), hits give high values
This is part of a sample that, as a whole, favours compounds with a hit. Of some 79,000 tested, about 15% had one in any assay.
# Lookup of reported growth inhibition keyed by entry
Write the number in % without appending the unit.

growth inhibition lookup needed for `CCOC(=O)C(C(=O)OCC)C(=O)c1ccccc1C(=O)c1ccccc1` , thanks.
23

growth inhibition lookup needed for `Cc1ccc2nc(-[n+]3cc4ccccc4cc3C)ccc2c1` , thanks.
100

---

# Lookup of reported growth inhibition keyed by entry
Test: NCI Yeast Anticancer Drug Screen. Data for the cln2 rad14 strain (AID 165);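 further: 0% = growth equal to vehicle treated cultures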
Settings: S. cerevisiae cln2 rad14 strain, at 50.0 µM (retest, dose inferred, filed as 5.0), hits give high values
This is part of a sample that, as a whole, favours compounds with a hit. Of some 79,000 tested, about 15% had one in any assay. Calls of active or inactive are those of the source. Rule as the data show it: active = growth inhibition above about 70%; inactive = the rest.

growth inhibition lookup needed for `Cc1cc2c(cc1C)[n+](=O)c(C(=O)C/C(=N/NC(=O)CC#N)C(=O)Nc1ccccc1C(F)(F)F)c(C)n2[O-]` , thanks.
38% (inactive)

---

Experiment: NCI Yeast Anticancer Drug Screen. Data for the rad50 strain (AID 155);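 further: 0% = growth of vehicle-only cultures of the same strain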
Conditions: S. cerevisiae rad50 strain growth inhibition; at 50.0 µM (retest, dose inferred, filed as 5.0); hits give high values
The panel holds about 79,000 compounds, 15% with a hit somewhere; the sample as a whole holds those more often.
quantity_measured: growth inhibition (%)
Write the number in % without appending the unit.

growth inhibition lookup needed for `COc1cc(C2=N/C(=C\c3ccccc3O)C(=O)O2)cc(OC)c1OC` , thanks.
-22

growth inhibition lookup needed for `CC(=O)Nc1ccc2c(c1)C(=O)c1cccc(F)c1-2` , thanks.
93

growth inhibition lookup needed for CCCCCCCCCN(CCCCCCCCC)CC(O)c1cc2c(c3ccccc13)CCCC2 (configuration not stated) , thanks.
93

growth inhibition lookup needed for `CCS(=O)(=O)/C=C(\C#Cc1ccccc1)c1ccccc1` , thanks.
84

growth inhibition lookup needed for `Cn1cnc([N+](=O)[O-])c1Sc1nc2cccnc2s1` , thanks.
80

growth inhibition lookup needed for `Nc1nc(N)c2c(ccc3c2ccn3Cc2cccc([N+](=O)[O-])c2)n1` , thanks.
60

growth inhibition lookup needed for `Cc1ccc(SSCCCCCS(=O)O)cc1` , thanks.
24

growth inhibition lookup needed for CC(C(O)c1ccccc1)[N+](=O)[O-] (configuration not stated) , thanks.
96

growth inhibition lookup needed for `COc1ccccc1OC(=O)Oc1ccccc1OC` , thanks.
19

growth inhibition lookup needed for `CN(C)c1nc(N(C)C)oc(=[N+](C)C)n1` , thanks.
-13

***
growth inhibition lookup needed for `Cc1cc([N+](=O)[O-])cc(Cl)c1O` , thanks.
51

growth inhibition lookup needed for N#CC1C=C(Cl)c2ccc(Cl)cc2N1C(=O)c1ccccc1 (configuration not stated) , thanks.
96
